Where do the numbers come from? From ChEMBL document CHEMBL5226357.

- Test system: THP-1
- ASSAY OVERVIEW: Cytotoxicity against human THP-1 cells assessed as reduction in cell viability incubated for 72 hrs by CellTiter-Glo luminescent assay
- Type: toxicity, cell-based
- CONDITION CONTEXT: thp-1, 72 h
Returns: string. Value is Satisfied if measured CC50 is below 3 µM, and Not satisfied if it is greater than or equal to it.

Hello, is CC50 of the following compound strictly smaller than 3 µM? CN1CCN(c2ccc(Nc3nccc(-c4cccc(Cl)c4)n3)cc2C(F)(F)F)CC1
Not satisfied

Hello, is CC50 of the following compound strictly smaller than 3 µM? CN1CCN(c2ccc(Nc3nccc(-c4ccnc(Cl)c4)n3)cc2C(F)(F)F)CC1
Satisfied

Hello, is CC50 of the following compound strictly smaller than 3 µM? Cc1ccc(-c2ccnc(Nc3ccc(N4CCN(C)CC4)c(C(F)(F)F)c3)n2)cc1
Not satisfied

Hello, is CC50 of the following compound strictly smaller than 3 µM? CN1CCN(c2ccc(Nc3nccc(-c4cccc([N+](=O)[O-])c4)n3)cc2C(F)(F)F)CC1
Not satisfied

Hello, is CC50 of the following compound strictly smaller than 3 µM? CN1CCN(c2ccc(Nc3nccc(-c4ccccc4)n3)cc2C(F)(F)F)CC1
Not satisfied

Hello, is CC50 of the following compound strictly smaller than 3 µM? CN1CCN(c2ccc(Nc3nccc(-c4cccnc4)n3)cc2C(F)(F)F)CC1
Satisfied
